- protocol_notes: P. aeruginosa biofilm formation inhibitors, primary screen, PAO1 strain, BacTiter-Glo luminescence, LB-PBS (AID 1144)
- conditions_used: 12 h, higher = more signal
MET means recorded z-score is -0.2 or above; NOT MET means it is below -0.2.

Consider the worked cases shown below.
molecule	classification
COc1ccc(O[C@@H]2[C@H](O)CO[C@H]2C=Cc2ccccc2)cc1	NOT MET
COc1ccc(O[C@H]2C=C[C@@H](c3ccccc3)O[C@@H]2COC(=O)CCC(C)=NOC(C)CN2CCCc3nc(C)c(C)cc32)cc1 (stereo partly drawn)	NOT MET
CO[C@H]1COC(=O)CCC[C@@H](C)[C@H](OC)COC(=O)[C@@H]2CCCN2C(=O)CC=C[C@@H]1C	MET

Exam item: Can `COC(=O)CC=C[C@@H](C)[C@@H](C=NOCC[C@@H]1C=C[C@H](OC(C)=O)[C@@H](COC(C)=O)O1)OC` be said to have z-score at or above -0.2?
Marked response: MET

Exam item: Can `CC(CCN1CCCCc2nc(C)c(C)cc21)=NO[C@@H](C)c1cn([C@H](CO)Cc2ccccc2)nn1` be said to have z-score at or above -0.2?
Marked response: MET

Exam item: Can CC(=O)O[C@H]1C2=CO[C@H](C)[C@H]3[C@H]4C5=C([C@H](O)[C@H]6O[C@H]6C5=O)[C@H](OC4C)[C@@]23C(=O)[C@@H]2O[C@@H]21 (stereo partly drawn) be said to have z-score at or above -0.2?
Marked response: MET

Exam item: Can `O=C1[C@H]2[C@H]3[C@H](O)[C@H](O)CC(=NO[C@@H]4O[C@H](CO)[C@@H](O)[C@H](O)[C@H]4O)[C@H]3CC[C@H]2C(=O)N1c1cccc(Oc2ccccc2)c1` be said to have z-score at or above -0.2?
Marked response: MET

Exam item: Can `O=C1[C@H]2[C@H]3[C@H](O)[C@H](O)CC(=NOCc4ccccc4)[C@@H]3CC[C@H]2C(=O)N1c1ccc(F)cc1F` be said to have z-score at or above -0.2?
Marked response: NOT MET

Exam item: Can CCOC(=O)[C@H](CC(C)C)NC(=O)CCC1CC(OC(=O)NCc2cccc3ccccc23)CC2(CCCC(COC(=O)NCC3CCCCC3)O2)O1 (stereo partly drawn) be said to have z-score at or above -0.2?
Marked response: NOT MET

Exam item: Can `CC(C)CON=C1C[C@@H](O)[C@@H](O)[C@@H]2[C@@H]3C(=O)N(C[C@@H]4CCCO4)C(=O)[C@@H]3CC[C@@H]12` be said to have z-score at or above -0.2?
Marked response: MET
